- assayProtocol: The drug is tested on Z-002 corresponding to rabbit gut metagenome with ENA study accession number: PRJEB37062 and ENA sample accession number: ERS12561802 for biotransformation under anaerobic condition. The drug concentrations were measured over 9 timepoints collected between 0 and 24 hours of incubation by liquid-chromatography-coupled mass spectrometry (LC–MS); also: call rule not given here
- cond: 2 µM
assayMetric: Bacterial Biotransformation

# annotated cases, reported Bacterial Biotransformation shown
O=C(O)CCc1nc(-c2ccccc2)c(-c2ccccc2)o1 has a reported Bacterial Biotransformation of Compound metabolized

CN1CC(=O)N2[C@H](c3ccc4c(c3)OCO4)c3[nH]c4ccccc4c3C[C@@H]2C1=O has a reported Bacterial Biotransformation of Compound metabolized

CN1CCOC(c2ccccc2)c2ccccc2C1 (configuration not stated) has a reported Bacterial Biotransformation of Compound NOT metabolized

CN1CCc2cccc3c2[C@H]1Cc1ccc(O)c(O)c1-3 has a reported Bacterial Biotransformation of Compound NOT metabolized

O=c1n(CCCN2CCN(c3cccc(Cl)c3)CC2)nc2ccccn12 has a reported Bacterial Biotransformation of Compound metabolized

Others:
CCN(CC)CCOC(=O)C(Cc1cccc2ccccc12)CC1CCCO1.O=C(O)C(=O)O (configuration not stated) [NAFRONYL OXALATE] has a reported Bacterial Biotransformation of Compound metabolized

CCCc1nn(C)c2c(=O)[nH]c(-c3cc(S(=O)(=O)N4CCN(C)CC4)ccc3OCC)nc12.O=C(O)CC(O)(CC(=O)O)C(=O)O [SILDENAFIL CITRATE] has a reported Bacterial Biotransformation of Compound NOT metabolized

Reference source: ChEMBL document CHEMBL5724914
